The measurements presented in this section are drawn from ChEMBL document CHEMBL1147463.

PROTOCOL_NOTES: Murine tumor cell selectivity was measured as zone unit differential between (C38) colon adenocarcinoma and (CFU) normal bone marrow in disk diffusion soft agar colony formation assay at a concentration of 75 ug/disk
Type: functional
Assign Selectivity to each entry below.
# output: bare number, no unit

Q) Give recorded Selectivity. CC[C@H]1C=CCC[C@@]2(C[C@@H]3CC[C@@H]4[C@H](C(=O)OCCCCCCCCCCCC(=O)N(CCCN)C[C@@H](O)CCN)[C@]5(CCC[C@@H](C)O5)NC(=[N+]34)N2)O1.Cl.Cl.[Cl-]
A) 100

Q) Give recorded Selectivity. CC[C@H]1C=CCC[C@@]2(C[C@@H]3CC[C@@H]4[C@H](C(=O)OCCCCCCCC(=O)N(CCCN)C[C@@H](O)CCN)[C@]5(CCC[C@@H](C)O5)NC(=[N+]34)N2)O1.Cl.Cl.[Cl-]
A) 100

Q) Give recorded Selectivity. CC[C@H]1C=CCC[C@@]2(C[C@@H]3CC[C@@H]4[C@H](C(=O)OCCCCCCCCCCCCCCC(=O)[O-])[C@]5(CCC[C@@H](C)O5)NC(=[N+]34)N2)O1.Cl [GUANIDINO ACID]
A) 100

* * *

PROTOCOL_NOTES: Human tumor selectivity was measured as zone unit differential between (H116) colon tumor and (CEM) lymphocytic leukemia in disk diffusion soft agar colony formation assay at a concentration of 5 ug/disk
Type: functional
MEASUREMENT_KIND: Selectivity
# output: bare number, no unit

Q) Give recorded Selectivity. CC[C@H]1C=CCC[C@@]2(C[C@@H]3CC[C@@H]4[C@@H](C(=O)OC/C=C/c5ccccc5)[C@]5(CCC[C@@H](C)O5)NC(=[N+]34)N2)O1.[Cl-]
A) 100

Q) Give recorded Selectivity. CCOC(=O)[C@H]1[C@H]2CC[C@H]3C[C@@]4(CCC=C[C@H](CC)O4)NC(=[N+]32)N[C@@]12CCC[C@@H](C)O2.[Cl-]
A) 0

Q) Give recorded Selectivity. CC[C@H]1C=CCC[C@@]2(C[C@@H]3CC[C@@H]4[C@H](C(=O)OCc5ccccc5)[C@]5(CCC[C@@H](C)O5)NC(=[N+]34)N2)O1.[Cl-]
A) 50

Q) Give recorded Selectivity. CC[C@H]1C=CCC[C@@]2(C[C@@H]3CC[C@@H]4[C@H](C(=O)OCCC(C)C)[C@]5(CCC[C@@H](C)O5)NC(=[N+]34)N2)O1.[Cl-]
A) 50

Q) Give recorded Selectivity. CC[C@H]1C=CCC[C@@]2(C[C@@H]3CC[C@@H]4[C@H](C(=O)OCC5CC5)[C@]5(CCC[C@@H](C)O5)NC(=[N+]34)N2)O1.[Cl-]
A) 100

* * *

Assign Selectivity to each entry below.
PROTOCOL_NOTES: Murine tumor cell selectivity as zone unit differential between ([…]) murine cell line and (CFU) normal bone marrow in disk diffusion soft agar colony formation assay at 75 ug/disk.
Assay type: functional
# output: bare number, no unit

Q) Give recorded Selectivity. CC[C@H]1C=CCC[C@@]2(C[C@@H]3CC[C@@H]4[C@H](C(=O)OCCCCCCCCCCCC(=O)O)[C@]5(CCC[C@@H](C)O5)NC(=[N+]34)N2)O1.[Cl-]
A) 50

Q) Give recorded Selectivity. CC[C@H]1C=CCC[C@@]2(C[C@@H]3CC[C@@H]4[C@H](C(=O)OCCCCCCCC(=O)O)[C@]5(CCC[C@@H](C)O5)NC(=[N+]34)N2)O1.[Cl-]
A) 100

Q) Give recorded Selectivity. CC[C@H]1C=CCC[C@@]2(C[C@@H]3CC[C@@H]4[C@H](C(=O)OCCCCCCCCCCCCCCCCCC(=O)O)[C@]5(CCC[C@@H](C)O5)NC(=[N+]34)N2)O1.[Cl-]
A) 0
